B1: library; numbered along this chain (parent)
chain: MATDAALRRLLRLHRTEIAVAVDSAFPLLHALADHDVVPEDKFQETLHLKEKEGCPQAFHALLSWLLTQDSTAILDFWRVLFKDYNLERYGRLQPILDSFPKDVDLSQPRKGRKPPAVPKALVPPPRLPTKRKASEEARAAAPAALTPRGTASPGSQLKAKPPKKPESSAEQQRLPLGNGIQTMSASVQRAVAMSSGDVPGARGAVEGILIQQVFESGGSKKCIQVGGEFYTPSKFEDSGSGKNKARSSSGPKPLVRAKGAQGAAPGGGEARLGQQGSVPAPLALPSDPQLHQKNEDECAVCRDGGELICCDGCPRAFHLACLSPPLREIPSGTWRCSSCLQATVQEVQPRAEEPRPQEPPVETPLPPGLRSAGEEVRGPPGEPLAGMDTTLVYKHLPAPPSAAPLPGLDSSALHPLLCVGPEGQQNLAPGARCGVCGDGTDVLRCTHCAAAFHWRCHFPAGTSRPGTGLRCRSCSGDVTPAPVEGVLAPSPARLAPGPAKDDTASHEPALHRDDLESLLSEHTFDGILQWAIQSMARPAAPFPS

variants of: B1; experiment: AIRE transcriptional activation functional score (insulin promoter-GFP; nonsense median 0, synonymous median 1) (normalised score); higher = higher AIRE activity (more reporter activation); conditions: with insulin promoter-GFP reporter in HEK293
EXPERIMENTAL ENDPOINT: AIRE transcriptional activation functional score
I'd appreciate a reply containing only the number, no unit.

// worked examples, AIRE transcriptional activation functional score included
MUTATION CODE | RECORDED RESULT
G204A | 1.42
A265D | 0.751
G274A | 0.889
A317P | 1.23
L291M | 1.29

Ask | Quick one: AIRE transcriptional activation functional score for A489V ?
Reply | 0.959

Ask | Quick one: AIRE transcriptional activation functional score for S506C ?
Reply | 1.39

Ask | Quick one: AIRE transcriptional activation functional score for G228C ?
Reply | 0.71

Ask | Quick one: AIRE transcriptional activation functional score for P350K ?
Reply | 0.93

Ask | Quick one: AIRE transcriptional activation functional score for E359R ?
Reply | 1.02

Ask | Quick one: AIRE transcriptional activation functional score for S24C ?
Reply | 0.658

Ask | Quick one: AIRE transcriptional activation functional score for Y231T ?
Reply | 0.493

Ask | Quick one: AIRE transcriptional activation functional score for P125G ?
Reply | 1.08

Ask | Quick one: AIRE transcriptional activation functional score for D76T ?
Reply | 0.0165

Ask | Quick one: AIRE transcriptional activation functional score for L397S ?
Reply | 0.938

Ask | Quick one: AIRE transcriptional activation functional score for G269Y ?
Reply | 0.676

Ask | Quick one: AIRE transcriptional activation functional score for H512Q ?
Reply | 0.273

Ask | Quick one: AIRE transcriptional activation functional score for K395S ?
Reply | 0.558

Ask | Quick one: AIRE transcriptional activation functional score for H454W ?
Reply | 0.31

Entry source: the supplement of paper PMC12667976
